# Target: A3Gctd-2K3A-E259A (UniProt Q9HC16 191-384, L234K;C243A;E259A;F310K;C321A;C356A)
# Sequence (Q9HC16 191-384 L234K/C243A/E259A/F310K/C321A/C356A): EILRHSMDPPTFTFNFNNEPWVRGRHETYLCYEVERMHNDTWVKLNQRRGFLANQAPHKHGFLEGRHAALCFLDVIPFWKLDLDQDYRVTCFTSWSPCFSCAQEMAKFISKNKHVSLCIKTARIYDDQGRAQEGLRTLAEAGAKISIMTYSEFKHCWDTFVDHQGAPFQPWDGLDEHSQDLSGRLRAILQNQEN
# Method summary: MST
pKd: −log10 of the molar value.
Attribute measured: pKd

1) ATTCCCAATT (XNA, 2'-deoxy-2'-fluoroarabinocytidine at position 6, rest DNA) [5'-ATTCC(2'-F-ANA)CAATT]    2.76
